- system name: Sppl2a CD74 (Mus musculus, UniProt Q9JJF9)
- Construct: Mouse whole blood Balb/c mice (sodium citrate) was ordered by Bioreclamation LLC; tissue Bioreclamation LLC
- Sequence (Q9JJF9 26-523): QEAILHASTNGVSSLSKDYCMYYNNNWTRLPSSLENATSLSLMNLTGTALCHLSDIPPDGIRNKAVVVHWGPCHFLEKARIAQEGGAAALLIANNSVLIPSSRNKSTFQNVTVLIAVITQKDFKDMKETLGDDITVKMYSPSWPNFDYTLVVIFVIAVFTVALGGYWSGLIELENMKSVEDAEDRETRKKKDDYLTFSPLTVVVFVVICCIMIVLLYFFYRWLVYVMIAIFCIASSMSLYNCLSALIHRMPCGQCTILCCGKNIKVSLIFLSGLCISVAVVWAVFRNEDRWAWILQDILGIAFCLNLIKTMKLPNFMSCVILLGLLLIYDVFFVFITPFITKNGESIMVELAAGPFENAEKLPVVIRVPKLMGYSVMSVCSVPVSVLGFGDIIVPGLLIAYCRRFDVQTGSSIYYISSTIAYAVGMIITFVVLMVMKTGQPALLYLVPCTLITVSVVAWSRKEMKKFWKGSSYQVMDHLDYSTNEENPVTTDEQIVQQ
- assay details: CD74/p8 mouse whole blood assay, flow cytometry format
- Type: cell-based
- setup conditions: Balb/c mouse whole blood, 5 h, CD74 signal on gated live B cells
recorded endpoint: IC50

Notebook: pull reported IC50 for Sppl2a CD74 (Mus musculus, UniProt Q9JJF9), entry `Cc1nc(C(=O)NC(C)C)sc1NC(=O)C[C@@H](C)C(=O)N[C@@H]1C(=O)N2CCCN2Cc2ccccc21`
136 nM

And for `CC[C@H](CNC(=O)c1sc(C(=O)NC(C)C)nc1C)C(=O)N[C@@H]1C(=O)N2CCCN2Cc2ccccc21` ?
819 nM

And for `CC[C@H](CNC(=O)c1sc(-c2cnn(C(F)F)c2)nc1Cl)C(=O)N[C@@H]1C(=O)N2CC3(CC3)CN2C(=O)c2ccccc21` ?
2510 nM

And for `CC[C@H](CNC(=O)c1sc(C(=O)NCC(F)F)nc1C)C(=O)N[C@@H]1C(=O)N2CCCN2Cc2ccccc21` ?
2430 nM

And for `CC(C)NC(=O)c1nc(Cl)c(C(=O)NC[C@@H](C)C(=O)N[C@@H]2C(=O)N3CCCN3Cc3ccccc32)s1` ?
3000 nM

And for `CC[C@H](CNC(=O)c1sc(C2=CCOCC2)nc1Cl)C(=O)N[C@@H]1C(=O)N2CCCN2Cc2ccccc21` ?
2680 nM

And for `CCNC(=O)c1nc(C)c(C(=O)NC[C@H](C(=O)N[C@@H]2C(=O)N3CCCN3Cc3ccccc32)C(F)(F)F)s1` ?
120 nM

And for `Cc1nc(C(=O)NC(C)C)sc1C(=O)NC[C@@H](C)C(=O)N[C@@H]1C(=O)N2CCCN2Cc2ccccc21` ?
1660 nM

And for `CC[C@H](CNC(=O)c1c(C)noc1C(F)(F)F)C(=O)N[C@@H]1C(=O)N2CCCN2Cc2ccccc21` ?
2350 nM

And for `Cc1cc(-c2cc(NC(=O)C[C@@H](C)C(=O)N[C@@H]3C(=O)N4CCCN4Cc4ccccc43)n(C)n2)on1` ?
635 nM

And for `Cc1nc(NC(=O)C(C)C)sc1C(=O)NC[C@H](C(=O)N[C@@H]1C(=O)N2CCCN2Cc2ccccc21)C(F)(F)F` ?
100 nM

And for `C[C@@H](CF)NC(=O)c1cc(NC(=O)C[C@H](C(=O)N[C@@H]2C(=O)N3CCCN3Cc3c(F)cccc32)C2CC2)n(C)n1` ?
272 nM

And for `CC[C@H](CNC(=O)c1sc(C(=O)NC)nc1C)C(=O)N[C@@H]1C(=O)N2CCCN2Cc2ccccc21` ?
161 nM

And for `CCNC(=O)c1nc(C)c(C(=O)NC[C@@H](C)C(=O)N[C@@H]2C(=O)N3CCCN3Cc3ccccc32)s1` ?
659 nM

And for `COCc1nc(C)c(C(=O)NC[C@H](C(=O)N[C@@H]2C(=O)N3CCCN3Cc3ccccc32)C(F)(F)F)s1` ?
148 nM

And for `CC(C)NC(=O)c1ncc(NC(=O)C[C@@H](C)C(=O)N[C@@H]2C(=O)N3CCCN3Cc3ccccc32)s1` ?
500 nM

And for `C[C@H](CC(=O)Nc1cc(C(=O)NC2CC2)nn1C)C(=O)N[C@@H]1C(=O)N2CCCN2Cc2ccccc21` ?
1520 nM

And for `Cc1nc(C2CCOCC2)sc1C(=O)NC[C@H](C(=O)N[C@@H]1C(=O)N2CCCN2Cc2ccccc21)C(F)(F)F` ?
1390 nM

And for `CCn1nc(-c2ccco2)cc1NC(=O)C[C@@H](C)C(=O)N[C@@H]1C(=O)N2CCCN2Cc2ccccc21` ?
203 nM

And for `CCNC(=O)c1nc(C)c(C(=O)NC[C@@H](CC)C(=O)N[C@@H]2C(=O)N3CCCN3Cc3ccccc32)s1` ?
289 nM

And for `C[C@H](CC(=O)Nc1cc(NC(=O)c2ccccc2F)nn1C)C(=O)N[C@@H]1C(=O)N2CCCN2Cc2ccccc21` ?
1240 nM

And for `CNC(=O)c1nc(C)c(C(=O)NC[C@H](C(=O)N[C@@H]2C(=O)N3CCCN3Cc3ccccc32)C(F)(F)F)s1` ?
95 nM

And for `Cc1nc(C(=O)NCC(F)F)sc1C(=O)NC[C@H](C(=O)N[C@@H]1C(=O)N2CCCN2Cc2ccccc21)C1CC1` ?
1560 nM

And for `Cc1nc(C(=O)NC(C)C)sc1C(=O)NC[C@H](C(=O)N[C@@H]1C(=O)N2CCCN2Cc2ccccc21)C1CC1` ?
947 nM

And for `COCCn1cc(-c2nc(Cl)c(NC(=O)C[C@@H](C)C(=O)N[C@@H]3C(=O)N4CCCN4Cc4ccccc43)s2)cn1` ?
892 nM

And for `COCC[C@H](CNC(=O)c1sc(-c2cc(C)no2)nc1C)C(=O)N[C@@H]1C(=O)N2CCCN2Cc2ccccc21` ?
847 nM

And for `CNC(=O)c1nc(C)c(C(=O)NC[C@@H](C)C(=O)N[C@@H]2C(=O)N3CCCN3Cc3ccccc32)s1` ?
358 nM

---

- system name: human SPPL2a (Homo sapiens, UniProt Q8TCT8)
- assay details: Sppl2a TL (translocation) imaging assay in U-2 OS cells
- Format: cell-based
- Set-up: expressed in transfected cells
- setup conditions: U-2 OS cells expressing human SPPL2a and EGFP-TNFα(aa1-76) NTF substrate; 24 h
I'd appreciate it if you could supply pIC50 values for the items below.
The read-out pIC50 is expressed as -log10 of concentration in moles per litre.

What does the data say about its pIC50? Entry: `CC[C@H](CNC(=O)c1sc(-c2ccno2)nc1C)C(=O)N[C@@H]1C(=O)N2CCCN2Cc2ccccc21`
7.43

And for `C[C@@H](CF)NC(=O)c1cc(NC(=O)C[C@H](C(=O)N[C@@H]2C(=O)N3CCCN3Cc3ccccc32)C2CC2)n(C)n1` ?
8.22

And for `Cc1cncc(-c2cc(NC(=O)C[C@H](C(=O)N[C@@H]3C(=O)N4CCCN4Cc4ccccc43)C3CC3)n(C)n2)c1` ?
8.30

And for `CC[C@H](CNC(=O)c1sncc1C)C(=O)N[C@@H]1C(=O)N2CCCN2C(=O)c2ccccc21` ?
7.35

---

- system name: human SPPL2a (Homo sapiens, UniProt Q8TCT8)
- Sequence (Q8TCT8 26-520): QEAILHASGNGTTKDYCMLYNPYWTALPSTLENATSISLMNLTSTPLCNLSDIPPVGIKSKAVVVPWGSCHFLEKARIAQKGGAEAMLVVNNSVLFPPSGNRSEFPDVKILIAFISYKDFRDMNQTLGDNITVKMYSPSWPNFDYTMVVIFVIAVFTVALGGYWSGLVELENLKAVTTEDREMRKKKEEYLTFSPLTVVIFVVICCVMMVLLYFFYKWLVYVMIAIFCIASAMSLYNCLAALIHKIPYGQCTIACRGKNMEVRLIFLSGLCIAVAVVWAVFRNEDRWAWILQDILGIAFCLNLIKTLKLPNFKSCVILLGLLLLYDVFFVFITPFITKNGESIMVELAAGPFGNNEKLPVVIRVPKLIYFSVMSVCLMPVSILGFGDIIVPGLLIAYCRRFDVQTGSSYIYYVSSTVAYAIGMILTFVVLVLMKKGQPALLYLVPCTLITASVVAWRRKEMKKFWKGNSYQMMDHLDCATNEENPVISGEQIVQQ
- assay details: Sppl2a RGA (reporter gene assay) in HEK293 cells
- Type: cell-based
- Design: expressed in transfected cells; host or cells: HEK293 (transient)
- setup conditions: NT-TNF-VP16-Gal4 substrate, Gal4-luciferase reporter, 24 h
Lab note: compare IC50 with 10 nM, writing Y if less and N if equal or more.

Lab note: IC50 threshold 10 nM. Does this compound come in strictly under it? CC(C)C(=O)Nc1cc(NC(=O)C[C@H](C(=O)N[C@@H]2C(=O)N3CC4(CC4)CN3C(=O)c3ccccc32)C2CC2)n(C)n1 [Example 93]
N

And for C[C@H](CC(=O)Nc1cc(NC(=O)C(C)(C)C)nn1C)C(=O)N[C@@H]1C(=O)N2CCCN2Cc2ccccc21 [Example 89] ?
N

And for Cc1cc(-c2cc(NC(=O)C[C@@H](C)C(=O)N[C@@H]3C(=O)N4CCCN4Cc4ccccc43)n(C)n2)on1 [Example 90] ?
N

And for CC(C)C(=O)Nc1cc(NC(=O)C[C@H](C(=O)N[C@@H]2C(=O)N3CC4(CC4)CN3C(=O)c3ccccc32)C2CCC2)n(C)n1 [Example 82] ?
N

And for Cc1nn(-c2ccc(C(F)(F)F)nc2)cc1NC(=O)C[C@@H](C)C(=O)N[C@@H]1C(=O)N2CCCN2Cc2ccccc21 [Example 92] ?
N

And for CC(C)C(=O)Nc1cc(NC(=O)C[C@@H](C)C(=O)N[C@@H]2C(=O)N3CCCN3Cc3ccccc32)n(C)n1 [Example 62] ?
N

And for CCn1nc(-c2ccc(C(F)(F)F)nc2)cc1NC(=O)C[C@@H](C)C(=O)N[C@@H]1C(=O)N2CCCN2Cc2ccccc21 [Example 83] ?
Y

And for CNC(=O)c1nc(C)c(C(=O)NC[C@@H](C)C(=O)N[C@@H]2C(=O)N3CCCN3Cc3ccccc32)s1 [Example 1] ?
N

And for CC[C@H](CNC(=O)c1sc(-c2ccc(C(F)(F)F)nc2)nc1C)C(=O)N[C@@H]1C(=O)N2CCCN2Cc2ccccc21 [Example 18] ?
Y

And for CCc1cc(-c2cc(NC(=O)C[C@@H](C)C(=O)N[C@@H]3C(=O)N4CCCN4Cc4ccccc43)n(C)n2)no1 [Example 81] ?
Y

And for Cc1nc(C(=O)NCC(F)F)sc1C(=O)NC[C@@H](C)C(=O)N[C@@H]1C(=O)N2CCCN2Cc2ccccc21 [Example 21] ?
Y

And for C[C@H](Cc1nc2cccc(C(F)(F)F)c2[nH]1)C(=O)N[C@@H]1C(=O)N2CCCN2Cc2ccccc21 [Example 114] ?
N

And for CC[C@H](CNC(=O)c1onc(C)c1C)C(=O)N[C@@H]1C(=O)N2CCCN2Cc2ccccc21 [Example 25] ?
Y
